System: Tetrahymena pyriformis
Experiment: 48 h IGC50 (-log10 mol/L); higher = more toxic
Would you mind labelling by 48 h IGC50 (-log10 mol/L)? At or over 3 is yes (1), under is no (0).

Problem: Quick check: does O=C1CCCC(=O)C1 have 48 h IGC50 (-log10 mol/L) greater than or equal to 3?
Result: no (0)

Problem: Quick check: does CC(O)CCC(C)O (configuration not stated) have 48 h IGC50 (-log10 mol/L) greater than or equal to 3?
Result: no (0)

Problem: Quick check: does N#CCCCCCCC#N have 48 h IGC50 (-log10 mol/L) greater than or equal to 3?
Result: no (0)

Problem: Quick check: does CC(C)(C)c1ccc(O)cc1 have 48 h IGC50 (-log10 mol/L) greater than or equal to 3?
Result: yes (1)

Problem: Quick check: does Clc1ccccn1 have 48 h IGC50 (-log10 mol/L) greater than or equal to 3?
Result: no (0)

Problem: Quick check: does CCc1cccc(O)c1 have 48 h IGC50 (-log10 mol/L) greater than or equal to 3?
Result: yes (1)

Problem: Quick check: does Cc1c[nH]c2ccccc12 have 48 h IGC50 (-log10 mol/L) greater than or equal to 3?
Result: yes (1)

Problem: Quick check: does CC(O)C(c1ccccc1)c1ccccc1 (configuration not stated) have 48 h IGC50 (-log10 mol/L) greater than or equal to 3?
Result: yes (1)

Problem: Quick check: does COC(=O)CCl have 48 h IGC50 (-log10 mol/L) greater than or equal to 3?
Result: yes (1)

Problem: Quick check: does CC(C)CCO have 48 h IGC50 (-log10 mol/L) greater than or equal to 3?
Result: no (0)

Problem: Quick check: does C#CCO have 48 h IGC50 (-log10 mol/L) greater than or equal to 3?
Result: no (0)

Problem: Quick check: does CCCC=O have 48 h IGC50 (-log10 mol/L) greater than or equal to 3?
Result: no (0)

Problem: Quick check: does O=[N+]([O-])c1cccnc1Cl have 48 h IGC50 (-log10 mol/L) greater than or equal to 3?
Result: yes (1)

Problem: Quick check: does O=C(O)c1cccc(O)c1 have 48 h IGC50 (-log10 mol/L) greater than or equal to 3?
Result: no (0)

Problem: Quick check: does CCOC(=O)C(Br)(Br)C(=O)OCC have 48 h IGC50 (-log10 mol/L) greater than or equal to 3?
Result: yes (1)

Problem: Quick check: does CCOC(=O)CCC(C)=O have 48 h IGC50 (-log10 mol/L) greater than or equal to 3?
Result: no (0)

Origin of the recorded values: EPA's aquatic toxicity sets
